target.or.test.system: human NTCP (Homo sapiens)
Sequence (Q14973 1-349): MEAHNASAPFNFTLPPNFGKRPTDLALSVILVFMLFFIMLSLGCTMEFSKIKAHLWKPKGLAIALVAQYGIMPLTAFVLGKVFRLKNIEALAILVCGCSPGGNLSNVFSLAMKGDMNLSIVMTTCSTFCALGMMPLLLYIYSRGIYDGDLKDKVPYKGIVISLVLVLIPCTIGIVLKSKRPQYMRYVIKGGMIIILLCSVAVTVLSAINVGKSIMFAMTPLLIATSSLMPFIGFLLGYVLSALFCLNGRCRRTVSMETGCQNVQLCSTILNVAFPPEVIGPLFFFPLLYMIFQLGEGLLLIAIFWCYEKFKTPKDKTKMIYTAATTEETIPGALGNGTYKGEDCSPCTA
method.description: Screening fluorescent competitive Myrcludex B-FITC binding assay (96-well, 10 µM drug)
measurement.setup: Prestwick library screen, Myrcludex B-FITC binding, 10 µM drug
Structures can show the parent of a compound that is named as a salt.
value.kind: B-score binding assay
Give your answer as a number; write no unit.

get_value(item= NC(=O)c1cc[n+](CC2=C(C(=O)O)N3C(=O)[C@@H](NC(=O)[C@@H](c4ccccc4)S(=O)(=O)[O-])[C@H]3SC2)cc1 [Cefsulodin sodium salt] , readout=B-score binding assay) returns -0.269

get_value(item= Nc1nnc(-c2cccc(Cl)c2Cl)c(N)n1 , readout=B-score binding assay) returns 0.084

get_value(item= CN(C)[C@@H]1C(O)=C(C(N)=O)C(=O)[C@@]2(O)C(O)=C3C(=O)c4c(O)ccc(Cl)c4[C@@H](O)[C@H]3C[C@@H]12 [Demeclocycline hydrochloride] , readout=B-score binding assay) returns 0.096

get_value(item= CC(=O)O[C@H]1C[C@@H]2CC[C@@H]3[C@H](CC[C@@]4(C)[C@H]3C[C@H]([N+]3(C)CCCCC3)[C@@H]4OC(C)=O)[C@@]2(C)C[C@@H]1[N+]1(C)CCCCC1 [Pancuronium bromide] , readout=B-score binding assay) returns -0.008

get_value(item= NCCc1ccc(O)c(O)c1 [Dopamine hydrochloride] , readout=B-score binding assay) returns 1.493

get_value(item= CC(C)NCC(O)COc1cccc2[nH]ccc12 (centres unmarked) , readout=B-score binding assay) returns 0.992

get_value(item= O=C(CCCN1CC=C(n2c(=O)[nH]c3ccccc32)CC1)c1ccc(F)cc1 , readout=B-score binding assay) returns 0.092

get_value(item= NC(N)=Nc1nc(CSCCC(N)=NS(N)(=O)=O)cs1 , readout=B-score binding assay) returns 0.039

get_value(item= CN(C)CCCN1c2ccccc2CCc2ccc(Cl)cc21 [Clomipramine hydrochloride] , readout=B-score binding assay) returns -0.277

get_value(item= Cl.Cl.Cl.Cl.Cl.NCCNCCNCCNCCN , readout=B-score binding assay) returns 0.678

get_value(item= CN(C)[C@@H]1C(O)=C(C(N)=O)C(=O)[C@@]2(O)C(O)=C3C(=O)c4c(O)ccc(Cl)c4[C@@](C)(O)[C@H]3C[C@@H]12 [Chlortetracycline hydrochloride] , readout=B-score binding assay) returns 0.571

get_value(item= CN(C)C(=N)N=C(N)N [Metformin hydrochloride] , readout=B-score binding assay) returns 1.144

get_value(item= CCC1(c2ccccc2)NC(=O)N(C)C1=O (centres unmarked) , readout=B-score binding assay) returns 0

get_value(item= Cc1c(-c2ccccc2)oc2c(C(=O)OCCN3CCCCC3)cccc2c1=O [Flavoxate hydrochloride] , readout=B-score binding assay) returns 1.224

get_value(item= N[C@@H]1CON=C1O , readout=B-score binding assay) returns 0.464

get_value(item= C[C@H](CS)C(=O)N1CCC[C@H]1C(=O)O , readout=B-score binding assay) returns 0.648

get_value(item= CCC1(c2ccccc2)C(=O)NCNC1=O , readout=B-score binding assay) returns -0.009

get_value(item= CC1(C)S[C@@H]2[C@H](NC(=O)Cc3ccccc3)C(=O)N2[C@H]1C(=O)O.CC1(C)S[C@@H]2[C@H](NC(=O)Cc3ccccc3)C(=O)N2[C@H]1C(=O)O.c1ccc(CNCCNCc2ccccc2)cc1 , readout=B-score binding assay) returns 0.21

get_value(item= CNC(=O)c1c(I)c(C(=O)NCC(=O)Nc2c(I)c(C(=O)O)c(I)c(C(=O)NCCO)c2I)c(I)c(N(C)C(C)=O)c1I , readout=B-score binding assay) returns 2.105

get_value(item= NCc1ccc(S(N)(=O)=O)cc1 [Mafenide hydrochloride] , readout=B-score binding assay) returns -0.055

get_value(item= CCN(CC)CCOc1ccc(C(=C(Cl)c2ccccc2)c2ccccc2)cc1.O=C(O)CC(O)(CC(=O)O)C(=O)O [Clomiphene citrate (Z,E)] , readout=B-score binding assay) returns -0.291

get_value(item= CO[C@H]1C[C@H](O[C@H]2[C@H](C)[C@@H](O[C@@H]3O[C@H](C)C[C@H](N(C)C)[C@H]3OC(C)=O)[C@@H](C)C[C@@]3(CO3)C(=O)[C@H](C)[C@@H](OC(C)=O)[C@@H](C)[C@@H](C)OC(=O)[C@@H]2C)O[C@@H](C)[C@@H]1OC(C)=O , readout=B-score binding assay) returns 0.633

get_value(item= COc1ccccc1O , readout=B-score binding assay) returns 0.94

get_value(item= CC(c1cc2ccccc2s1)N(O)C(N)=O (centres unmarked) , readout=B-score binding assay) returns 1.294

get_value(item= O=C(Cn1ccnc1[N+](=O)[O-])NCCO , readout=B-score binding assay) returns 0.108

get_value(item= C[C@H]1C[C@H]2[C@@H]3CCC4=CC(=O)C=C[C@]4(C)[C@@]3(F)[C@@H](O)C[C@]2(C)[C@@]1(O)C(=O)CO , readout=B-score binding assay) returns -0.13

get_value(item= [H]/N=C(/N)NS(=O)(=O)c1ccc(N)cc1 , readout=B-score binding assay) returns 2.333

get_value(item= CN1CCN2c3ccccc3Cc3ccccc3C2C1.Cl (centres unmarked) [Mianserine hydrochloride] , readout=B-score binding assay) returns 0.761

get_value(item= CN(C/C=C/C#CC(C)(C)C)Cc1cccc2ccccc12 , readout=B-score binding assay) returns -0.07

get_value(item= COc1ccc(C(=O)c2ccccc2)c(O)c1 , readout=B-score binding assay) returns -0.416

get_value(item= COc1cc(NS(=O)(=O)c2ccc(N)cc2)nc(OC)n1 , readout=B-score binding assay) returns -0.117

get_value(item= C[C@]12CCC(=O)C=C1C=C[C@@H]1[C@@H]2CC[C@@]2(C)[C@H]1CC[C@@]2(O)CCC(=O)[O-].[K+] [Canrenoic acid potassium salt] , readout=B-score binding assay) returns 0.007

* * *

target.or.test.system: human NTCP (Homo sapiens, UniProt Q14973)
method.description: Screening fluorescent competitive Myrcludex B-FITC binding assay (96-well, 10 µM drug)
measurement.setup: Prestwick library screen, Myrcludex B-FITC binding, 10 µM drug
Counter-ions that a name gives are not always drawn.
Quick rule: B-score binding assay of at least -0.001 means label 1, below that means label 0.

Q: Reported B-score binding assay reaches at least -0.001 for CN1C(C(=O)Nc2ccccn2)=C(O)c2ccccc2S1(=O)=O ?
A: label 0

Q: Reported B-score binding assay reaches at least -0.001 for CC12CC3CC(C)(C1)CC(N)(C3)C2 [Memantine Hydrochloride] ?
A: label 0

Q: Reported B-score binding assay reaches at least -0.001 for C=C(C)[C@@H]1[C@H]2OC(=O)[C@@H]1[C@]1(O)C[C@H]3O[C@]34C(=O)O[C@H]2[C@]14C ?
A: label 1

Q: Reported B-score binding assay reaches at least -0.001 for CCC1(c2ccc(N)cc2)CCC(=O)NC1=O (stereo not shown) [Glutethimide, para-amino] ?
A: label 0

Q: Reported B-score binding assay reaches at least -0.001 for CCN(CC)CCNC(=O)c1ccc(N)cc1 [Procainamide hydrochloride] ?
A: label 0

Q: Reported B-score binding assay reaches at least -0.001 for CC(CCc1ccc(O)cc1)NCCc1ccc(O)c(O)c1 (stereo not shown) [Dobutamine hydrochloride] ?
A: label 1

Q: Reported B-score binding assay reaches at least -0.001 for O=C(Nc1ccccc1)OCC(CN1CCCCC1)OC(=O)Nc1ccccc1 (stereo not shown) [Diperodon hydrochloride] ?
A: label 1

Q: Reported B-score binding assay reaches at least -0.001 for CO[C@@H]1[C@@H](O[C@@H]2O[C@H](C)[C@@H](O[C@H]3C[C@@](C)(O)[C@@H](OC(=O)CC(C)C)[C@H](C)O3)[C@H](N(C)C)[C@H]2O)[C@@H](CC=O)C[C@@H](C)[C@@H](O)/C=C/C=C/C[C@@H](C)OC(=O)C[C@H]1OC(C)=O ?
A: label 0

Q: Reported B-score binding assay reaches at least -0.001 for COc1ccc(C[C@@H]2c3cc(OC)c(OC)cc3CC[N@+]2(C)CCC(=O)OCCCCCOC(=O)CC[N@@+]2(C)CCc3cc(OC)c(OC)cc3[C@H]2Cc2ccc(OC)c(OC)c2)cc1OC [Cisatracurium besylate] ?
A: label 0

Q: Reported B-score binding assay reaches at least -0.001 for CCCC(C)(COC(N)=O)COC(=O)NC(C)C (stereo not shown) ?
A: label 1

Q: Reported B-score binding assay reaches at least -0.001 for Cc1nc2ccccn2c(=O)c1CCN1CCC(C(=O)c2ccc(F)cc2)CC1 ?
A: label 1

Q: Reported B-score binding assay reaches at least -0.001 for CCCCCCCN(CC)CCCC(O)c1ccc(NS(C)(=O)=O)cc1.CCCCCCCN(CC)CCCC(O)c1ccc(NS(C)(=O)=O)cc1.O=C(O)/C=C/C(=O)O (stereo not shown) [Ibutilide fumarate] ?
A: label 1

Q: Reported B-score binding assay reaches at least -0.001 for CN(C)[C@@H]1C(O)=C(C(N)=O)C(=O)[C@@]2(O)C(O)=C3C(=O)c4c(O)cccc4[C@@](C)(O)[C@H]3C[C@@H]12 [Tetracycline hydrochloride] ?
A: label 1

Q: Reported B-score binding assay reaches at least -0.001 for Nc1nc(F)nc2c1ncn2[C@@H]1O[C@H](CO)[C@@H](O)[C@@H]1O ?
A: label 0

Q: Reported B-score binding assay reaches at least -0.001 for c1coc(CNc2ncnc3nc[nH]c23)c1 ?
A: label 0

Q: Reported B-score binding assay reaches at least -0.001 for Cn1c(=O)c2c(ncn2CC(O)CO)n(C)c1=O (stereo not shown) ?
A: label 1

Q: Reported B-score binding assay reaches at least -0.001 for CN1CCC(=C2c3ccccc3C=Cc3ccccc32)CC1 [Cyproheptadine hydrochloride] ?
A: label 1

Q: Reported B-score binding assay reaches at least -0.001 for NC(=O)N1c2ccccc2CC(=O)c2ccccc21 [Oxcarbazepine] ?
A: label 1

Q: Reported B-score binding assay reaches at least -0.001 for CCN1CCN(c2cc3c(cc2F)c(=O)c(C(=O)O)cn3C2CC2)CC1 ?
A: label 1

Q: Reported B-score binding assay reaches at least -0.001 for C[C@@]12N[C@@H](Cc3ccccc31)c1ccccc12.O=C(O)/C=C\C(=O)O [(-)-MK 801 hydrogen maleate] ?
A: label 1

Q: Reported B-score binding assay reaches at least -0.001 for COc1ccc(Cc2nccc3cc(OC)c(OC)cc23)cc1OC [Papaverine hydrochloride] ?
A: label 1

Q: Reported B-score binding assay reaches at least -0.001 for CN(C)CCC=C1c2ccccc2C=Cc2ccccc21 [Cyclobenzaprine hydrochloride] ?
A: label 1

Q: Reported B-score binding assay reaches at least -0.001 for CCCNCC(O)COc1ccccc1C(=O)CCc1ccccc1 (stereo not shown) [Propafenone hydrochloride] ?
A: label 1

Q: Reported B-score binding assay reaches at least -0.001 for Cc1noc(NS(=O)(=O)c2ccc(N)cc2)c1C ?
A: label 1

Q: Reported B-score binding assay reaches at least -0.001 for CCCN1C[C@H](CSC)C[C@@H]2c3cccc4[nH]cc(c34)C[C@H]21 [Pergolide mesylate] ?
A: label 1

Q: Reported B-score binding assay reaches at least -0.001 for Cc1oncc1C(=O)Nc1ccc(C(F)(F)F)cc1 [Leflunomide] ?
A: label 0

Q: Reported B-score binding assay reaches at least -0.001 for Cc1ccc(O)c([C@H](CCN(C(C)C)C(C)C)c2ccccc2)c1 [Tolterodine tartrate] ?
A: label 1

Q: Reported B-score binding assay reaches at least -0.001 for O=C(O)c1cccnc1 ?
A: label 1

Q: Reported B-score binding assay reaches at least -0.001 for C#C[C@]1(O)CC[C@H]2[C@@H]3CCC4=C(CCC(=O)C4)[C@H]3CC[C@@]21C ?
A: label 1

Q: Reported B-score binding assay reaches at least -0.001 for Nc1ccn([C@@H]2O[C@H](CO)[C@@H](O)C2(F)F)c(=O)n1 ?
A: label 1

Q: Reported B-score binding assay reaches at least -0.001 for CC(=O)Nc1nnc(S(N)(=O)=O)s1 [Acetazolamide] ?
A: label 0

Q: Reported B-score binding assay reaches at least -0.001 for Cn1c(=O)c2c(ncn2C)n(C)c1=O ?
A: label 1

Q: Reported B-score binding assay reaches at least -0.001 for CC(C(O)c1ccc(O)cc1)N1CCC(Cc2ccccc2)CC1.CC(C(O)c1ccc(O)cc1)N1CCC(Cc2ccccc2)CC1.O=C(O)C(O)C(O)C(=O)O (stereo not shown) [Ifenprodil tartrate] ?
A: label 0

Data provenance is paper PMC5681660.
